Catalogue of polymerase ribozyme fitness (log ratio) values
B1: TPR 5TU (parent)
chain: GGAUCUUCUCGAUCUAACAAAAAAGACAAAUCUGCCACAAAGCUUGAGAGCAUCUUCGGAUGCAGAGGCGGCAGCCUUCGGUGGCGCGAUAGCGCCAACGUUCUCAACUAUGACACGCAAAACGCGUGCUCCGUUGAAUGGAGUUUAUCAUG

# Variants of: B1
# test_name: polymerase ribozyme fitness, log enrichment relative to wild type (log ratio); higher = more active; in vitro selection for triplet polymerase activity
Fewer inactive variants are shown than the library holds.
Answer with the value's number alone.

Consider the worked cases shown below.
U33A C85U: -3.79
A22C C85A: -1.08
C54U G143A: -0.736
A16G A17C U31A U55G C57G A115C U135A: -3.86

Exam item: For A89G G92U C125U U146C , what is its reported polymerase ribozyme fitness (log ratio)?
Marked response: -1.03

Exam item: Could you tell me which polymerase ribozyme fitness (log ratio) is on file for G83A U101G A106U U145C ?
Marked response: -2.55

Exam item: Entry G81A C105U : reported polymerase ribozyme fitness (log ratio) = ?
Marked response: 1.52

Exam item: State the recorded polymerase ribozyme fitness (log ratio) for this entry: C14U C105G
Marked response: -3.25

Exam item: Fill in the blank: the reported polymerase ribozyme fitness (log ratio) of U4A A17C G59C A119G is ____.
Marked response: -0.404

Exam item: Param item = U82C A115U G136C ; retrieve measured polymerase ribozyme fitness (log ratio).
Marked response: -3.84

Exam item: Item under review: "C116G" . Reported polymerase ribozyme fitness (log ratio)?
Marked response: 0.655

Exam item: Using the record for A20G G80A U82G C95U , report its polymerase ribozyme fitness (log ratio).
Marked response: -1.15

Exam item: Fill blank: measured polymerase ribozyme fitness (log ratio) of the variant A47G C51U C87U is ____.
Marked response: -0.414

Exam item: # lookup: polymerase ribozyme fitness (log ratio) of C51G G84U
Marked response: -3.11

Exam item: What value of polymerase ribozyme fitness (log ratio) has been recorded for this entry: U145C U146G
Marked response: 0.121

Exam item: Recorded polymerase ribozyme fitness (log ratio) for U4C C51U C76U G94A , please?
Marked response: -1.51

Exam item: Data request, read-out polymerase ribozyme fitness (log ratio), for A12U C87U A97U
Marked response: -0.917
